Data origin, for the record: patent US10000499B2

- TGT: human orexin-2 receptor (Homo sapiens)
- Construct: expressed in transfected cells; host or cells: CHO cells (grown under G418 selection)
- RUN DESCRIPTION: FLIPR Ca2+ flux assay, OX2R
- Assay type: cell-based
- RECORDED CONDITIONS: OX2R over OX1R, from FLIPR values
Fold Selective under 100 gets Criterion met, anything at or over 100 gets Criterion not met.

COMPOUND: C[C@@H]1CCN(c2nccn3ccnc23)CCN1C(=O)c1cccnc1-n1cccn1 [Example 25]
GROUP LABEL: Criterion met

COMPOUND: C[C@@H]1CCN(c2nccn3ccnc23)CCN1C(=O)c1ccccc1-n1nccn1 [Example 22]
GROUP LABEL: Criterion not met

COMPOUND: COc1ccnc(N2CC[C@@H](C)N(C(=O)c3ccsc3-n3nccn3)CC2)c1 [Example 3]
GROUP LABEL: Criterion met

COMPOUND: C[C@@H]1CCN(c2nccn3ccnc23)CCN1C(=O)c1ccccc1C1CC1 [Example 23]
GROUP LABEL: Criterion not met

COMPOUND: CCN(C(C)=O)c1cccc(N2CC[C@@H](C)N(C(=O)c3ccccc3-n3nccn3)CC2)n1 [Example 13]
GROUP LABEL: Criterion not met

COMPOUND: COc1ccnc(N2CC[C@@H](C)N(C(=O)c3ccccc3C3CC3)CC2)c1 [Example 9]
GROUP LABEL: Criterion met

COMPOUND: COc1ccnc(N2CC[C@@H](C)N(C(=O)c3ccccc3C3(C#N)CC3)CC2)c1 [Example 4]
GROUP LABEL: Criterion met

COMPOUND: CC(=O)N(C)c1cccc(N2CC[C@@H](C)N(C(=O)c3ccccc3-n3nccn3)CC2)n1 [Example 12]
GROUP LABEL: Criterion not met

---

- TGT: human orexin-2 receptor (Homo sapiens, UniProt O43614)
- Construct: expressed in transfected cells; host or cells: CHO cells (grown under G418 selection)
- Sequence (O43614 whole entry): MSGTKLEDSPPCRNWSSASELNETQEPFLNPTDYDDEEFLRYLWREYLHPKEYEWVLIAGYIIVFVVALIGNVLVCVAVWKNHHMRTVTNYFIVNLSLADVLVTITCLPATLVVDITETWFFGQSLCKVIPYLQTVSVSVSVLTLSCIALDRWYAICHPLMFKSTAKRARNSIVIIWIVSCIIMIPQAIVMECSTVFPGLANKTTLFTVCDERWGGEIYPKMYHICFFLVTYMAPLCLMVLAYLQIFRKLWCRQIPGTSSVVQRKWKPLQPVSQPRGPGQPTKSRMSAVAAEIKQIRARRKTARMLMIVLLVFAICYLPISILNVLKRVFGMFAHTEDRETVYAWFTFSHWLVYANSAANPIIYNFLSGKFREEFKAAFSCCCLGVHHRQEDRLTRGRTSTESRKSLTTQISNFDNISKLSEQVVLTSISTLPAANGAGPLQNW
- RUN DESCRIPTION: FLIPR Ca2+ flux assay, OX2R
- Format: cell-based
- RECORDED CONDITIONS: CHO cells expressing human orexin-2 receptor; agonist 70 pM Ala-6,12 orexin-A; read-out: OX2R FLIPR
pIC50: −log10 of the molar value.
Mark false for pIC50 values under 7, and true for everything at or above.

MOLECULE: C[C@@H]1CCN(c2cccc(C(C)(C)O)n2)CCN1C(=O)c1ccccc1-n1nccn1
GROUP LABEL: true
//
MOLECULE: COc1ccnc(N2CC[C@@H](C)N(C(=O)c3cccnc3OCC(F)F)CC2)c1
GROUP LABEL: false
//
MOLECULE: CC(C)C(=O)N(C)c1cccc(N2CC[C@@H](C)N(C(=O)c3ccccc3-n3nccn3)CC2)n1
GROUP LABEL: true
//
MOLECULE: CC(O)c1cccc(N2CC[C@@H](C)N(C(=O)c3ccccc3-n3nccn3)CC2)n1 (some centres unmarked)
GROUP LABEL: true

---

- TGT: human orexin-2 receptor (Homo sapiens)
- Construct: expressed in transfected cells; host or cells: CHO cells (grown under G418 selection)
- RUN DESCRIPTION: FLIPR Ca2+ flux assay, OX2R
- Assay type: cell-based
- RECORDED CONDITIONS: OX2R over OX1R, from FLIPR values
- Experimental: For intracellular calcium measurements, Chinese hamster ovary (CHO) cells expressing the rat orexin-1 receptor or the human orexin-2 receptor, are grown in Iscove's modified DMEM containing 2 mM L-glutamine, […], 1% hypoxanthine-thymidine supplement, 100 U/ml penicillin, 100 μg/ml streptomycin and 10% heat-inactivated fetal calf serum (FCS). […] The intrinsic orexin receptor antagonist activity of a compound which may be used in the present invention may be determined by these assays.
MEASURE: Fold Selective

COMPOUND: COc1ccnc(N2CC[C@@H](C)N(C(=O)c3cccnc3OCC(F)(F)F)CC2)c1
RECORDED NUMBER: 108

COMPOUND: COc1ccnc(N2CC[C@@H](C)N(C(=O)c3cccnc3OCC(F)F)CC2)c1
RECORDED NUMBER: 54

COMPOUND: COc1ccnc(N2CC[C@@H](C)N(C(=O)c3cccnc3-n3cccn3)CC2)c1
RECORDED NUMBER: 97

COMPOUND: COc1ccnc(N2CC[C@@H](C)N(C(=O)c3ccccc3C3CCC3)CC2)c1
RECORDED NUMBER: 81

COMPOUND: Cc1ccnc(N2CC[C@@H](C)N(C(=O)c3ccccc3-n3nccn3)CC2)c1
RECORDED NUMBER: 68

COMPOUND: COc1ccnc(N2CC[C@@H](C)N(C(=O)c3ccccc3-n3nccn3)CC2)c1
RECORDED NUMBER: 57

COMPOUND: C[C@@H]1CCN(c2nccn3nccc23)CCN1C(=O)c1ccccc1-n1nccn1
RECORDED NUMBER: 88

COMPOUND: CC(O)c1cccc(N2CC[C@@H](C)N(C(=O)c3ccccc3-n3nccn3)CC2)n1 (some centres unmarked)
RECORDED NUMBER: 127

---

IC50 listing for selected molecules.
- TGT: rat orexin-1 receptor (Rattus norvegicus, UniProt P56718)
- Sequence (P56718 whole entry): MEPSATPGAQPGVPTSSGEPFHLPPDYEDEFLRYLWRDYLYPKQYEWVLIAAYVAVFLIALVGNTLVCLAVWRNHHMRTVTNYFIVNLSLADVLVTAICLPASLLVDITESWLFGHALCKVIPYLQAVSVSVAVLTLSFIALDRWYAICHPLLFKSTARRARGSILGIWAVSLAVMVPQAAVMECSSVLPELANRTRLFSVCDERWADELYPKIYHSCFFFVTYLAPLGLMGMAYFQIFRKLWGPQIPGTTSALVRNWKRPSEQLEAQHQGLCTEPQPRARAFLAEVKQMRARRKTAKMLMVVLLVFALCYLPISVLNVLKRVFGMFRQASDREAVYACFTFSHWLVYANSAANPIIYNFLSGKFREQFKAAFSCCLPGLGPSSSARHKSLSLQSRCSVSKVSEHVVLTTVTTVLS
- RUN DESCRIPTION: FLIPR Ca2+ flux assay, OX1R
- RECORDED CONDITIONS: CHO cells expressing rat orexin-1 receptor; agonist 70 pM Ala-6,12 orexin-A

STRUCTURE AS SMILES: COc1ccnc(N2CC[C@@H](C)N(C(=O)c3cccnc3OCC(F)(F)F)CC2)c1
IC50: > 10 µM
--
STRUCTURE AS SMILES: COc1ccnc(N2CC[C@@H](C)N(C(=O)c3ccccc3C3(C#N)CC3)CC2)c1
IC50: > 10 µM
--
STRUCTURE AS SMILES: C[C@@H]1CCN(c2cccc(N(C)C(=O)C3CC3)n2)CCN1C(=O)c1ccccc1-n1nccn1
IC50: 9.13 µM

---

- TGT: human orexin-2 receptor (Homo sapiens, UniProt O43614)
- Construct: expressed in transfected cells; host or cells: CHO cells (grown under G418 selection)
- RUN DESCRIPTION: FLIPR Ca2+ flux assay, OX2R
- Format: cell-based
- RECORDED CONDITIONS: CHO cells expressing human orexin-2 receptor; agonist 70 pM Ala-6,12 orexin-A; read-out: OX2R FLIPR
Overview of recorded IC50 for various compounds
MEASURE: IC50 (nM)

STRUCTURE AS SMILES: COc1ccnc(N2CC[C@@H](C)N(C(=O)c3cccnc3OCC(F)(F)F)CC2)c1
UNIT: nM
RECORDED NUMBER: 92
--
STRUCTURE AS SMILES: C[C@@H]1CCN(c2cccc(N(C)C(=O)C3CC3)n2)CCN1C(=O)c1ccccc1-n1nccn1
UNIT: nM
RECORDED NUMBER: 71
--
STRUCTURE AS SMILES: C[C@@H]1CCN(c2cccc(N3CCN(C)C3=O)n2)CCN1C(=O)c1ccccc1-n1nccn1
UNIT: nM
RECORDED NUMBER: 104
--
STRUCTURE AS SMILES: C[C@@H]1CCN(c2nccn3ccnc23)CCN1C(=O)c1ccccc1C1(C#N)CC1
UNIT: nM
RECORDED NUMBER: 65
